Where do the numbers come from? From ChEMBL document CHEMBL5724914.

Assay: The drug is tested on Z-003 corresponding to pig gut metagenome with ENA study accession number: PRJEB37062 and ENA sample accession number: ERS12561803 for biotransformation under anaerobic condition. The drug concentrations were measured over 9 timepoints collected between 0 and 24 hours of incubation by liquid-chromatography-coupled mass spectrometry (LC–MS); also: call rule not given here
Details: 2 µM
measurement-type: Bacterial Biotransformation

CN(CCOc1ccc(CC2SC(=O)NC2=O)cc1)c1ccccn1.O=C(O)/C=C\C(=O)O (stereo not given) [ROSIGLITAZONE MALEATE]    Compound NOT metabolized
O=C1C(CC[S+]([O-])c2ccccc2)C(=O)N(c2ccccc2)N1c1ccccc1 (stereo not given)    Compound metabolized
CCc1cccc2c3c([nH]c12)C(CC)(CC(=O)O)OCC3 (stereo not given)    Compound NOT metabolized
Cc1cc2c(s1)Nc1ccccc1N=C2N1CCN(C)CC1    Compound metabolized
OC(c1cc(C(F)(F)F)nc2c(C(F)(F)F)cccc12)C1CCCCN1 (stereo not given)    Compound metabolized
CC(N)C12CC3CC(CC(C3)C1)C2 (stereo not given)    Compound NOT metabolized

Request: Any idea what Bacterial Biotransformation was measured for O=P1(N(CCCl)CCCl)NCCCO1 (stereo not given) [CYCLOPHOSPHAMIDE ANHYDROUS] ?
Result: Compound NOT metabolized

Request: Same read-out for COC(=O)[C@H](c1ccccc1Cl)N1CCc2sccc2C1.O=S(=O)(O)O [CLOPIDOGREL BISULFATE] ?
Result: Compound metabolized

Request: Same read-out for O=C(NC(Cc1cc(=O)[nH]c2ccccc12)C(=O)O)c1ccc(Cl)cc1 (stereo not given) [REBAMIPIDE] ?
Result: Compound NOT metabolized

Request: Same read-out for COc1ccc([C@@H]2Sc3ccccc3N(CCN(C)C)C(=O)[C@@H]2OC(C)=O)cc1 ?
Result: Compound metabolized

###

Experiment: The drug is tested on WLS-098 corresponding to human gut metagenome with ENA study accession number: PRJEB37062 and ENA sample accession number: ERS12561754 for biotransformation under anaerobic condition. The drug concentrations were measured over 9 timepoints collected between 0 and 24 hours of incubation by liquid-chromatography-coupled mass spectrometry (LC–MS)
Settings: 2 µM
measurement-type: Bacterial Biotransformation

# count of solved cases: 5
N#Cc1ccc2c(c1)N(CCCN1CCC(O)CC1)c1ccccc1S2 [PERICIAZINE]    Compound metabolized
COC(=O)[C@H](c1ccccc1Cl)N1CCc2sccc2C1.O=S(=O)(O)O [CLOPIDOGREL BISULFATE]    Compound metabolized
COc1ccc(C(CN(C)C)C2(O)CCCCC2)cc1 (stereo unspecified) [VENLAFAXINE]    Compound NOT metabolized
C#C[C@]1(OC(C)=O)CC[C@H]2[C@@H]3CCC4=C/C(=N/O)CC[C@@H]4[C@H]3CC[C@@]21CC [NORGESTIMATE]    Compound metabolized
CC(N)C12CC3CC(CC(C3)C1)C2 (stereo unspecified) [RIMANTADINE]    Compound NOT metabolized

Request: Any idea what Bacterial Biotransformation was measured for COc1ccnc(C[S+]([O-])c2nc3ccc(OC(F)F)cc3[nH]2)c1OC (stereo unspecified) [PANTOPRAZOLE] ?
Result: Compound metabolized

###

Experiment: The drug is tested on WLS-240 corresponding to human gut metagenome with ENA study accession number: PRJEB37062 and ENA sample accession number: ERS12561773 for biotransformation under anaerobic condition. The drug concentrations were measured over 9 timepoints collected between 0 and 24 hours of incubation by liquid-chromatography-coupled mass spectrometry (LC–MS)
Details: 2 µM
measurement-type: Bacterial Biotransformation

CC(NC(C)(C)C)C(=O)c1cccc(Cl)c1 (stereo not given) [BUPROPION]    Compound NOT metabolized
C#C[C@]1(OC(C)=O)CC[C@H]2[C@@H]3CCC4=CC(=O)CC[C@@H]4[C@H]3CC[C@@]21C [NORETHINDRONE ACETATE]    Compound metabolized
N[C@@H](Cc1ccc(N(CCCl)CCCl)cc1)C(=O)O    Compound NOT metabolized
O=C(O)c1cc(/N=N/c2ccc(S(=O)(=O)Nc3ccccn3)cc2)ccc1O [SULFASALAZINE]    Compound metabolized

Request: Any idea what Bacterial Biotransformation was measured for O=C(NC(Cc1cc(=O)[nH]c2ccccc12)C(=O)O)c1ccc(Cl)cc1 (stereo not given) [REBAMIPIDE] ?
Result: Compound NOT metabolized

Request: Same read-out for Nc1nc(N)nc(-c2cc(Cl)ccc2Cl)n1.O=C(O)/C=C\C(=O)O [IRSOGLADINE MALEATE] ?
Result: Compound NOT metabolized

Request: Same read-out for CCc1cccc2c3c([nH]c12)C(CC)(CC(=O)O)OCC3 (stereo not given) [ETODOLAC] ?
Result: Compound metabolized

###

Test: The drug is tested on Z-008 corresponding to metagenome with ENA study accession number: PRJEB37062 and ENA sample accession number: ERS12561808 for biotransformation under anaerobic condition. The drug concentrations were measured over 9 timepoints collected between 0 and 24 hours of incubation by liquid-chromatography-coupled mass spectrometry (LC–MS)
Conditions: 2 µM
measurement-type: Bacterial Biotransformation

# count of solved cases: 7
CC(=O)SCC(Cc1ccccc1)C(=O)NCC(=O)OCc1ccccc1 (stereo not drawn) [RACECADOTRIL]    Compound metabolized
CN(C)C(=O)Oc1cc(OC(=O)N(C)C)cc(C(O)CNC(C)(C)C)c1 (stereo not drawn) [BAMBUTEROL]    Compound NOT metabolized
CCOC(=O)C1=C[C@]2(CC)CCCN3CCc4c(n1c1ccccc41)[C@@H]32 [VINPOCETINE]    Compound NOT metabolized
N#Cc1ccc2[nH]cc(CCCCN3CCN(c4ccc5oc(C(N)=O)cc5c4)CC3)c2c1 [VILAZODONE]    Compound metabolized
C=C[C@H]1CN2CC[C@H]1C[C@H]2[C@H](O)c1ccnc2ccc(OC)cc12.C=C[C@H]1CN2CC[C@H]1C[C@H]2[C@H](O)c1ccnc2ccc(OC)cc12.O.O.O=S(=O)(O)O [QUININE SULFATE]    Compound NOT metabolized
CCCN(CCC)CCc1cccc2c1CC(=O)N2 [ROPINIROLE]    Compound NOT metabolized
CC(=O)OCC(=O)[C@@]1(OC(C)=O)[C@@H](C)C[C@H]2[C@@H]3C[C@H](F)C4=CC(=O)C=C[C@]4(C)[C@@]3(F)[C@@H](O)C[C@@]21C [DIFLORASONE DIACETATE]    Compound metabolized

Request: Any idea what Bacterial Biotransformation was measured for Nc1nnc(-c2cccc(Cl)c2Cl)c(N)n1 [LAMOTRIGINE] ?
Result: Compound NOT metabolized

###

Assay: The drug is tested on WLS-010 corresponding to human gut metagenome with ENA study accession number: PRJEB37062 and ENA sample accession number: ERS12561743 for biotransformation under anaerobic condition. The drug concentrations were measured over 9 timepoints collected between 0 and 24 hours of incubation by liquid-chromatography-coupled mass spectrometry (LC–MS)
Settings: 2 µM
measurement-type: Bacterial Biotransformation

CCOC(=O)C1=C(C)NC(C)=C(C(=O)OC)C1c1cccc([N+](=O)[O-])c1 (stereo not drawn)    Compound metabolized
COc1ccc(Cc2nccc3cc(OC)c(OC)cc23)cc1OC    Compound metabolized
C[C@@H](c1ncncc1F)[C@](O)(Cn1cncn1)c1ccc(F)cc1F    Compound metabolized

###

Assay: The drug is tested on Z-009 corresponding to pig gut metagenome with ENA study accession number: PRJEB37062 and ENA sample accession number: ERS12561809 for biotransformation under anaerobic condition. The drug concentrations were measured over 9 timepoints collected between 0 and 24 hours of incubation by liquid-chromatography-coupled mass spectrometry (LC–MS)
Conditions: 2 µM
measurement-type: Bacterial Biotransformation

# count of solved cases: 10
CC[C@H](C)C(=O)O[C@H]1CCC=C2C=C[C@H](C)[C@H](CC[C@@H]3C[C@@H](O)CC(=O)O3)[C@H]21    Compound NOT metabolized
CC(C)C[C@H]1C(=O)N2CCC[C@H]2[C@]2(O)O[C@](NC(=O)[C@@H]3C=C4c5cccc6[nH]c(Br)c(c56)C[C@H]4N(C)C3)(C(C)C)C(=O)N12.CS(=O)(=O)O [BROMOCRIPTINE MESYLATE]    Compound metabolized
O=C(O)CCC(=O)O.O=C(O[C@H]1CN2CCC1CC2)N1CCc2ccccc2[C@@H]1c1ccccc1 [SOLIFENACIN SUCCINATE]    Compound metabolized
O=C(O)c1cc(/N=N/c2ccc(S(=O)(=O)Nc3ccccn3)cc2)ccc1O    Compound metabolized
CC(C)(C)NC[C@H](O)COc1nsnc1N1CCOCC1.O=C(O)/C=C\C(=O)O [TIMOLOL MALEATE]    Compound NOT metabolized
C=CC[C@@H]1/C=C(\C)C[C@H](C)C[C@H](OC)[C@H]2O[C@@](O)(C(=O)C(=O)N3CCCC[C@H]3C(=O)O[C@H](/C(C)=C/[C@@H]3CC[C@@H](O)[C@H](OC)C3)[C@H](C)[C@@H](O)CC1=O)[C@H](C)C[C@@H]2OC.O    Compound NOT metabolized
CN1[C@@H]2CC[C@H]1C[C@@H](OC(=O)c1c[nH]c3ccccc13)C2    Compound NOT metabolized
COc1ccc(Cc2nccc3cc(OC)c(OC)cc23)cc1OC    Compound metabolized
COc1ccc2c(c1)c(CC(=O)O)c(C)n2C(=O)c1ccc(Cl)cc1    Compound NOT metabolized
CC(=O)CCCCn1c(=O)c2c(ncn2C)n(C)c1=O    Compound NOT metabolized

Request: Any idea what Bacterial Biotransformation was measured for CC(C)c1nc(N(C)S(C)(=O)=O)nc(-c2ccc(F)cc2)c1/C=C/[C@@H](O)C[C@@H](O)CC(=O)[O-].CC(C)c1nc(N(C)S(C)(=O)=O)nc(-c2ccc(F)cc2)c1/C=C/[C@@H](O)C[C@@H](O)CC(=O)[O-].[Ca+2] ?
Result: Compound NOT metabolized

Request: Same read-out for O=C(CCCN1CCC2(CC1)C(=O)NCN2c1ccccc1)c1ccc(F)cc1 ?
Result: Compound metabolized

Request: Same read-out for CC(=O)OCC(=O)NCCCOc1cccc(CN2CCCCC2)c1 [ROXATIDINE ACETATE] ?
Result: Compound metabolized

Request: Same read-out for O=C(NC(Cc1cc(=O)[nH]c2ccccc12)C(=O)O)c1ccc(Cl)cc1 (stereo unspecified) [REBAMIPIDE] ?
Result: Compound NOT metabolized
